Assay: NCI Yeast Anticancer Drug Screen. Data for the rad50 strain (AID 155);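 note: 0% = growth of vehicle-only cultures of the same strain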
Details: S. cerevisiae rad50 strain growth inhibition; at 5.0 µM (retest, dose inferred, filed as 0.5); stronger effect = higher value
Compounds without any hit were thinned out: in the full panel of roughly 79,000, 15% have a hit.
In this section, each of the molecules is paired with its reported growth inhibition.

{"molecule": "Cc1ccc(S(=O)(=O)Nn2c(S)c(C#N)c(-c3ccc(Cl)cc3)c(C#N)c2=O)cc1", "growth inhibition (%)": 29}
{"molecule": "CN(C)/N=C\\C1CC=CCC1 (stereo unspecified)", "growth inhibition (%)": -148}
{"molecule": "C[N+](C)(C)CCCCCCCCCCC(=O)N/N=C/c1ccc([N+](=O)[O-])o1", "growth inhibition (%)": 6}
{"molecule": "O=C1CN=C(c2ccccc2)N(c2ccccc2)N1", "growth inhibition (%)": -1}
{"molecule": "Cc1ccc(S(=O)(=O)OC2COC3C(OS(=O)(=O)c4ccc(C)cc4)COC23)cc1 (stereo unspecified)", "growth inhibition (%)": -2}
{"molecule": "O=C1NC(=O)C(Cc2ccccc2)(Cc2ccccc2)S1", "growth inhibition (%)": 5}
{"molecule": "CCCN(CCC)Cc1cc2c(cc1O)CC[C@@H]1[C@@H]2CC[C@]2(C)C(=O)CC[C@@H]12", "growth inhibition (%)": 98}
{"molecule": "Cc1c(O)/c(=C\\O)c2nc3c(=O)ccc(C(=O)NCCN(C)C)c3[nH]c2c1=O", "growth inhibition (%)": 29}
{"molecule": "O=C1C(Cl)=C(c2ccc([N+](=O)[O-])cc2)C(=O)c2c(O)cccc21", "growth inhibition (%)": 79}
{"molecule": "CC(C)(C)C(NO)C(O)N1CCCCC1 (stereo unspecified)", "growth inhibition (%)": -155}
{"molecule": "N=C(N)Cc1ccc(NC(=O)c2ccc(C(=O)Nc3ccc(CC(=N)N)cc3)cc2)cc1", "growth inhibition (%)": 3}
